In this section we review reported growth values for a set of compounds.
Tested on: NCI/ADR-RES ovarian
Assay: NCI-60 one-dose screen, 48 h (100 = growth as untreated, 0 = no growth, -100 = all killed)
Details: 10 µM unless noted
The panel holds about 83,000 compounds, 20% with a hit somewhere; the sample as a whole holds those more often.
Unit % implied. Number only.

Worked cases, answers included:
smiles_code=Brc1ccc(-c2[nH]ncc2-c2c[nH]c3ccccc23)cc1 unit_abbrev=% result=101
smiles_code=COc1cccc(-c2nc3sccn3c2-c2ccnc(NCCCNS(=O)(=O)c3ccc(C(F)(F)F)cc3)c2)c1 unit_abbrev=% result=35.5
smiles_code=COc1ccc(Nc2[nH]n3c(=O)cc(-c4ccccc4)nc3c2C(=O)Nc2ccc(C)cc2)c(OC)c1 unit_abbrev=% result=108

Problem: Which growth is reported for this compound? COc1cccc(/C=C2\Oc3cc(OCCCN4CCCC4)ccc3C2=O)c1
Solution: 89.1

Problem: Which growth is reported for this compound? COc1ccc(S(=O)(=O)n2cc(C(=O)C(=O)Nc3ccncc3)c3ccccc32)cc1F
Solution: 67.2

Problem: Which growth is reported for this compound? COc1ccc(/C=C2\CN(Cc3cn(CCNc4ccnc5cc(Cl)ccc45)nn3)C/C(=C\c3ccc(OC)c(OC)c3)C2=O)cc1OC
Solution: 103

Problem: Which growth is reported for this compound? Nc1cccc(-c2nc3sccn3c2-c2ccnc(NCCCNS(=O)(=O)c3cccc4ccccc34)n2)c1
Solution: 38.3

Problem: Which growth is reported for this compound? O=C(CN1CCN(c2cc3c(cc2F)c(=O)c(C(=O)N/N=C/c2ccccc2O)cn3C2CC2)CC1)N/N=C\c1ccccc1O
Solution: 23.6

Problem: Which growth is reported for this compound? O=C(Nc1ccc(Cl)c(Cl)c1)NS(=O)(=O)c1cnccc1Oc1ccc(F)cc1
Solution: 53.3

These data points were gathered from PubChem BioAssay (NCI).
